Test system: HMLE_sh_eGFP viability, CellTiter-Glo luminescence, 72 h
Experiment: cytotoxicity in HMLE control line with eGFP shRNA, dose response, counter-screen for HMLE_sh_ECad selective toxicity project, cell-based, HMLE_sh_eGFP, luminescence (AID 463074);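 further: counterscreen control line to flag general toxicity for the HMLE_sh_ECad screen; potency for loss of viability as luminescence drops below DMSO wells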
Active and inactive are the calls of the source.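 How the source made its calls: active means AC50 no more than tenfold above the top dose tested, or full inhibition at every dose with a flat fit (cut at about 19 µM in these data); inconclusive means flat curve fit with inhibition between 30% and 70%, or poor fit; inactive means AC50 more than tenfold above the top dose tested.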
Write down one outcome, taken from YES (active), NO (inactive)

The examples below pair each entry with its known result.
>>> cat("CCCOc1ccc(/C=N/Nc2cccc([N+](=O)[O-])c2)c(O)c1")
"YES"
>>> cat("CCCS(=O)(=O)c1c(S(=O)(=O)CCC)c2c(C)cccn2c1C(=O)N/N=C/c1cc(O)cc(O)c1")
"YES"
>>> cat("CN(C)c1ccc(-c2cc(O)c3ncccc3c2)cc1")
"YES"
>>> cat("CCOc1ccc(/C=C/C(O)=C2/C(=O)N(C)C3(C)CC2c2ccccc2O3)cc1OC (stereo unspecified)")
"YES"
>>> cat("CCCCCc1cc(=O)oc2c(C(CCN(CC)CC)c3cc(OC)c(OC)c(OC)c3)c(OC)cc(OC)c12 (stereo unspecified)")
"YES"

# lookup: test call for CCN1C(=O)C(=Cc2cccc(OC)c2Oc2ccc([N+](=O)[O-])cc2[N+](=O)[O-])SC1=S
YES

# lookup: test call for Cc1cccc(NC2=C/C(=N/S(=O)(=O)c3cccs3)c3ccccc3C2=O)c1
YES

# lookup: test call for O=C(COc1cccc(C(F)(F)F)c1)N1CCN(c2ccc(O)cc2)CC1
YES

# lookup: test call for Nc1ccc2c(c1)Oc1ccccc1C=C2
NO

# lookup: test call for N#Cc1ccc(Nc2nc(-c3ccc(O)cc3O)cs2)cc1C(F)(F)F
YES

# lookup: test call for COc1ccccc1C1c2ccc3ccccc3c2Oc2ncn(CCN(C)C)c(=N)c21 (stereo unspecified)
YES

# lookup: test call for CCn1c(=O)c(C(=O)NCc2ccccc2OC)c(O)c2ccccc21
YES

====

System: HMLE_sh_eGFP viability, CellTiter-Glo luminescence, 72 h
Assay: cytotoxicity in HMLE control line with eGFP shRNA, dose response, counter-screen for HMLE_sh_ECad selective toxicity project, cell-based, HMLE_sh_eGFP, luminescence (AID 463074);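 further: counterscreen control line to flag general toxicity for the HMLE_sh_ECad screen; potency for loss of viability as luminescence drops below DMSO wells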
value_type: AC50

Some solved cases for reference:
>>> result("COc1cc(/C=C/c2[nH]c(=O)[nH]c(=O)c2[N+](=O)[O-])ccc1OCCC(C)C")
"7.14 µM"
>>> result("O=C(/C=C/c1ccc(F)cc1)c1ccccc1Br")
"3.57 µM"
>>> result("CCN1CCN(Cc2ccc(NC(=O)c3cc(NC(=O)c4cncc(-c5cccs5)c4)cc(OC)c3)cc2C(F)(F)F)CC1")
"3.52 µM"

Lab note: need AC50 with HMLE_sh_eGFP viability, CellTiter-Glo luminescence, 72 h for entry Cc1cc(C)nc(SCc2ccc(C(=O)NNC(=O)Nc3cccc(Cl)c3)cc2)n1 , please look it up.
3.92 µM

Lab note: need AC50 with HMLE_sh_eGFP viability, CellTiter-Glo luminescence, 72 h for entry Cc1ccc(NNC(=O)c2ccno2)cc1Cl , please look it up.
4 µM

Lab note: need AC50 with HMLE_sh_eGFP viability, CellTiter-Glo luminescence, 72 h for entry CC(C)(C)c1nn(-c2ccccc2)c2[nH]c(=O)c(C=O)cc12 , please look it up.
8.18 µM

Lab note: need AC50 with HMLE_sh_eGFP viability, CellTiter-Glo luminescence, 72 h for entry O=S(=O)(c1ccc(Cl)cc1)N1CCN(Cc2ccc(O)c3ncccc23)CC1 , please look it up.
6.21 µM
